Entries and their measured melting point follow.
Structures can show the parent of a compound that is named as a salt.
Quantity Name: melting point (°C)

{"Molecule": "CCc1cn(-c2ccc3n(c2=O)CC(C)N(Cc2cc(C(F)(F)F)cc(C(F)(F)F)c2)C3=O)cn1.Cl (stereo not drawn)", "Quantity Name": "melting point", "Numeric Readout": 290}
{"Molecule": "Cc1cn(-c2ccc3n(c2=O)CCN(Cc2cccc(C4CC4)c2)C3=O)cn1", "Quantity Name": "melting point", "Numeric Readout": 121.5}
{"Molecule": "Cc1cn(-c2ccc3n(c2=O)CCN(c2cccc(C(F)(F)F)c2F)C3=O)cn1", "Quantity Name": "melting point", "Numeric Readout": 227.5}
{"Molecule": "COc1cc(CN2C(=O)c3ccc(-n4cnc(C)c4)c(=O)n3C[C@H]2C)cc(C(F)(F)F)c1", "Quantity Name": "melting point", "Numeric Readout": 132.4}
{"Molecule": "Cc1cn(-c2ccc3n(c2=O)CC(C)N(C(C)c2cn(C)c4c(F)cc(Cl)cc24)C3=O)cn1 (single isomer, unassigned)", "Quantity Name": "melting point", "Numeric Readout": 243}
{"Molecule": "Cc1cn(-c2ccc3n(c2=O)CCN(C(C)c2cccc(Cl)c2Cl)C3=O)cn1 (single isomer, unassigned) [10b]", "Quantity Name": "melting point", "Numeric Readout": 206.4}
{"Molecule": "Cc1cn(-c2ccc3n(c2=O)CCN(Cc2cccc(N4CCCCC4)c2)C3=O)cn1", "Quantity Name": "melting point", "Numeric Readout": 163.6}
{"Molecule": "Cc1cn(-c2cc(F)c3n(c2=O)C[C@@H](C)N(Cc2cc(C(F)(F)F)cc(C(F)(F)F)c2)C3=O)cn1", "Quantity Name": "melting point", "Numeric Readout": 137.1}
{"Molecule": "Cc1cn(-c2ccc3n(c2=O)C[C@@H](C)N(Cc2ccc(C(F)(F)F)c(N4CCCCC4)c2)C3=O)cn1 (as salt: HCl)", "Quantity Name": "melting point", "Numeric Readout": 130.6}
{"Molecule": "Cc1cn(-c2ccc3n(c2=O)CCN(Cc2cc(OC(C)C)cc(C(F)(F)F)c2)C3=O)cn1", "Quantity Name": "melting point", "Numeric Readout": 171.7}
{"Molecule": "Cc1cn(-c2ccc3n(c2=O)CCN(C(C)c2cc(F)cc(C(F)(F)F)c2)C3=O)cn1 (stereo not drawn)", "Quantity Name": "melting point", "Numeric Readout": 225.6}
{"Molecule": "CCC(c1cc(OC)cc(C(F)(F)F)c1)N1C(=O)c2ccc(-n3cnc(C)c3)c(=O)n2C[C@H]1C (single isomer, unassigned) (as salt: HCl) [compound 141]", "Quantity Name": "melting point", "Numeric Readout": 146.2}
{"Molecule": "Cc1cn(-c2ccc3n(c2=O)C[C@@H](C)N(CCc2cccc(C(F)(F)F)c2C)C3=O)cn1", "Quantity Name": "melting point", "Numeric Readout": 129}
{"Molecule": "Cc1cn(-c2ccc3n(c2=O)CCN(CC2(c4ccc(Cl)cc4)CC2)C3=O)cn1", "Quantity Name": "melting point", "Numeric Readout": 227.1}
{"Molecule": "Cc1cn(-c2ccc3n(c2=O)C[C@@H](C)N(Cc2cccc(Cl)c2F)C3=O)cn1", "Quantity Name": "melting point", "Numeric Readout": 182.2}
